These measurements were taken from PubChem BioAssay.

target: Neurogenic locus notch homolog protein 2 (Homo sapiens) (UniProt Q04721); assay: Notch2 binders on small-molecule microarrays, primary screen, biochemical, small-molecule microarray, 635 nm fluorescence, stem cell growth factors (AID 1073); settings: Notch2 binding, higher = more signal
Sequence (Q04721 whole entry, looked up): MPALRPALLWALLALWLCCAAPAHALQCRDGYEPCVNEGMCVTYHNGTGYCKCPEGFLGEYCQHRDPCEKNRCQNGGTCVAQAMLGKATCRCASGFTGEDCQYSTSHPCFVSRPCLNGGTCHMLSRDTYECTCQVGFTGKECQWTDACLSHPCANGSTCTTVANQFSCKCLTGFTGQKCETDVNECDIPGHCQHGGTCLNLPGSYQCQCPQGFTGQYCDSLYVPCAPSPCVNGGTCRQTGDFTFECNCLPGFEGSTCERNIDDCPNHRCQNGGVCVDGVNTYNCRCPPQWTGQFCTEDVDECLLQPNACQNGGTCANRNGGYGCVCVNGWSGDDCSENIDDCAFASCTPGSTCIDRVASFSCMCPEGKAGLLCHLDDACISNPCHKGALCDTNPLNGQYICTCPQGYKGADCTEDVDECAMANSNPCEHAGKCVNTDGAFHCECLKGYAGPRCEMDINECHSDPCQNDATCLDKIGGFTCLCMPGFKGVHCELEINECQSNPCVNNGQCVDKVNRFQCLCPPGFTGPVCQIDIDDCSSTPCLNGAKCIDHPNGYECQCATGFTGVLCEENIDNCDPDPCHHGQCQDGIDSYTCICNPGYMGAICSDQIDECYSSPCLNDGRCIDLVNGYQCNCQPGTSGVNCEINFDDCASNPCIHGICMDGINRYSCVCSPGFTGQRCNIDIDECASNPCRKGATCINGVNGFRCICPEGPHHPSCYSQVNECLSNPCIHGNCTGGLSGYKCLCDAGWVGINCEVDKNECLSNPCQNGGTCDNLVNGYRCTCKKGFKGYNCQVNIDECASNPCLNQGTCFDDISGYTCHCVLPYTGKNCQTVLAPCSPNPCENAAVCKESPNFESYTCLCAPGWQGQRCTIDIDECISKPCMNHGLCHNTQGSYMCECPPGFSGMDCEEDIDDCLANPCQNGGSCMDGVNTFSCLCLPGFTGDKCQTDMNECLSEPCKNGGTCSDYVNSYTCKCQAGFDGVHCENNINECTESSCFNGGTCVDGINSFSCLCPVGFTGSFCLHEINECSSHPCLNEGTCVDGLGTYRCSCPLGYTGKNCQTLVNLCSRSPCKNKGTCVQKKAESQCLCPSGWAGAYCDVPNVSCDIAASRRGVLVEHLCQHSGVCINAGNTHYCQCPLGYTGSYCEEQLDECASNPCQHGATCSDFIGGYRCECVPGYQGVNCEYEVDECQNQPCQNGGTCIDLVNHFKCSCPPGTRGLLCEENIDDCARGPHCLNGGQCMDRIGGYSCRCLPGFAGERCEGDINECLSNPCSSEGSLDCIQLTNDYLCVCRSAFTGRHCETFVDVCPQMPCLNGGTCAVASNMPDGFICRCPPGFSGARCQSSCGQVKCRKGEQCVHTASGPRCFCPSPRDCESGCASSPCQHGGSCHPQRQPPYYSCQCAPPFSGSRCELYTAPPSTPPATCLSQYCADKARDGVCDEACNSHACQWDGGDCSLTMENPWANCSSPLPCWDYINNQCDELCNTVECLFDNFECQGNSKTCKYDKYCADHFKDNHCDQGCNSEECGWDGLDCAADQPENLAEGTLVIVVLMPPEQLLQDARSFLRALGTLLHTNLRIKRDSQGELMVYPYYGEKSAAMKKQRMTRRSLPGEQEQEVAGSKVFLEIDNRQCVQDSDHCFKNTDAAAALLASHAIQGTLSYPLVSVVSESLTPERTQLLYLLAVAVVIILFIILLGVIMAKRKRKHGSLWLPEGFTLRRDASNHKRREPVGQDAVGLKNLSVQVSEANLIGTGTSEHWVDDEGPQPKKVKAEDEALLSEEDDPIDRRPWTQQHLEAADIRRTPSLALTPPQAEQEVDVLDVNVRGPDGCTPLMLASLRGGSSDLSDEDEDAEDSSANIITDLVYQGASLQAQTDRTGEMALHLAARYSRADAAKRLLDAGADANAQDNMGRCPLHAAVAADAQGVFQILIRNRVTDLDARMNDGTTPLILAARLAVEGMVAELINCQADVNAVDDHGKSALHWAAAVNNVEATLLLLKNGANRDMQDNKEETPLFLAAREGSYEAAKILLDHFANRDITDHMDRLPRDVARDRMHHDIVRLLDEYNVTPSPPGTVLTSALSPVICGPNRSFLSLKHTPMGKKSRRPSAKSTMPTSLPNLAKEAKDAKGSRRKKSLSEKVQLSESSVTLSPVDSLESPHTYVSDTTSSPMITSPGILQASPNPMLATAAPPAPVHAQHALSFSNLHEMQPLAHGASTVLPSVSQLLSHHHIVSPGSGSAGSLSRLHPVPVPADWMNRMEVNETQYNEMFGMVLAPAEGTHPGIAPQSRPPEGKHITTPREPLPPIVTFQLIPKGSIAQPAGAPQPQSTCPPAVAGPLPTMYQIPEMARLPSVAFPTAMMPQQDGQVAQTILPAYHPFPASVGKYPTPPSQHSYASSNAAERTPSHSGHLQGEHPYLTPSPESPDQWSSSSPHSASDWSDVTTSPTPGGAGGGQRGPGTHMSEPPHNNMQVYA
Provide the reported composite z-score of each item.
Give bare numbers.

Solved entries (count: 5):
{"Molecule": "CC(CCN1CCCCc2nc(C)c(C)cc21)=NOC[C@@H](O)COCc1ccco1", "Readout Number": 0.296}
{"Molecule": "C=CC1=C[C@H](O)[C@@H]2O[C@@H]2C12OCCCO2", "Readout Number": 0.0754}
{"Molecule": "COc1ccc(O[C@H]2C=C[C@@H](c3ccccc3)O[C@@H]2COC(=O)CCC(C)=NOC(C)CN2CCCc3nc(C)c(C)cc32)cc1 (stereo partly drawn)", "Readout Number": 0.571}
{"Molecule": "CC(C)=CCCC(C)=CCON=C1C[C@@H](O)[C@@H](O)[C@@H]2[C@@H]3C(=O)N(C[C@@H]4CCCO4)C(=O)[C@@H]3CC[C@H]12", "Readout Number": 0.583}
{"Molecule": "Cc1ccc(S(=O)(=O)N[C@@H]2COC(=O)[C@@H](C)COC(=O)CC=C[C@H]2C)cc1", "Readout Number": 0.672}

Dear reader, for each entry below, please note its composite z-score.
1. CCOC(=O)[C@H](CC(C)C)NC(=O)CCC1CC(OC(=O)NCc2cccc3ccccc23)CC2(CCCC(COC(=O)NCCC(C)C)O2)O1 (stereo partly drawn)
2. COc1ccc(COC(=O)NN=C2C[C@@H](O)[C@@H](O)[C@@H]3[C@@H]4C(=O)N(Cc5ccccc5)C(=O)[C@@H]4CC[C@H]23)cc1
3. O=C1CCCC=C1C(O)CCOC(c1ccccc1)(c1ccccc1)c1ccccc1 (stereo not drawn)

result:
0.193
-0.234
-0.0617

====

assay: small-molecule microarray binders of probe aXIP, primary screen, biochemical, NeuroSMM set, 635/667 nm fluorescence (AID 1119); details: higher = more signal, called active from +8 up or from −8 down;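 note: probe is the protein aXip251-270 applied at 1 µg/mL to compound-printed slides; binding of probe to printed compounds measured as 667 nm fluorescence plus signal to noise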
Measured Endpoint: composite Z-score
One number for each entry.

Solved entries (count: 6):
{"Compound": "Cc1cc2c(nc1C)CCCN2CC(O)CN1CCCc2nc(C)c(C)cc21", "composite Z-score": 2.34}
{"Compound": "O=C1CCCC(C2=CCCCC2=O)C1 (stereo not given)", "composite Z-score": 0.675}
{"Compound": "CO[C@@H]1COC(=O)[C@@H](C)NC(=O)CC=C[C@@H](C)[C@H](NS(=O)(=O)c2ccc(C)cc2)COC(=O)[C@H](C)NC(=O)CC=C[C@H]1C", "composite Z-score": 1.05}
{"Compound": "COC(=O)CC=C[C@@H](C)[C@@H](C=NOC[C@H]1O[C@H](c2ccccc2)C=C[C@@H]1Oc1ccc(OC)cc1)OC", "composite Z-score": -0.0708}
{"Compound": "COc1ccc(O[C@H]2C=C[C@@H](c3ccccc3)O[C@@H]2CON=C(C)C)cc1", "composite Z-score": 0.537}
{"Compound": "CO[C@H]1COC(=O)CC=C[C@H](C)[C@@H](OC)COC(=O)[C@@H](C)COC(=O)CC=C[C@@H]1C", "composite Z-score": 0.793}

Dear reader, for each entry below, please note its composite Z-score.
1. COC(=O)CC=C[C@@H](C)[C@@H]1C=C[C@H](O)[C@@H](CO)O1
2. Cc1ccc(S(=O)(=O)N[C@H]2COC(=O)CC=C[C@H](C)[C@@H](NS(=O)(=O)c3ccc(C)cc3)COC(=O)CC=C[C@@H]2C)cc1
3. CC(=O)Nc1ccc([C@@H]2N[C@H](C(=O)O)CC[C@H]2C)cc1
4. COc1cccc([C@H]2Oc3ccc(OC)cc3C(=NO[C@H](C)c3cn([C@H](CO)Cc4ccccc4)nn3)[C@@H]2O)c1

result:
1: 0.0543; 2: -0.286; 3: 0.237; 4: -0.372

Dear reader, for each entry below, please note its composite Z-score.
1. CC(C)=CCCC(C)=CCON=C1C[C@@H](O)[C@@H](O)[C@@H]2[C@@H]3C(=O)N(C4CCCCC4)C(=O)[C@@H]3CC[C@@H]12
2. CCCNC(=O)OC[C@H]1O[C@H](c2ccccc2)C=C[C@@H]1Oc1ccc(OC)cc1
3. CO[C@@H]1COC(=O)CC=C[C@@H](C)[C@H](OC)COC(=O)[C@@H](C)COC(=O)CC=C[C@H]1C

result:
0.244
0.0414
0.0068

Dear reader, for each entry below, please note its composite Z-score.
1. CCCNC(=O)OC[C@H]1O[C@H](CCON=C(C)CCN2CCCc3nc(C)c(C)cc32)C=C[C@@H]1Oc1ccc(OC)cc1
2. CO[C@H](C1CCCCC1)[C@H](C)C=CCC(=O)OCCCc1ccccc1
3. COC(=O)CC=C[C@@H](C)[C@@H](C=NO[C@H](C)c1cn([C@@H]2COC[C@H]2O)nn1)NS(=O)(=O)c1ccc(C)cc1
4. CON=C[C@@H](NS(=O)(=O)c1ccc(C)cc1)[C@H](C)C=CCC(=O)OC
5. CCCNC(=O)OC[C@H]1O[C@H](CCON=C(C)CCC(=O)OC[C@H]2O[C@H](c3ccccc3)C=C[C@@H]2Oc2ccc(OC)cc2)C=C[C@@H]1Oc1ccc(OC)cc1

result:
0.475
0.349
0.355
-0.722
-0.0662

Dear reader, for each entry below, please note its composite Z-score.
1. CC(C)CON=C1C[C@@H](O)[C@@H](O)[C@@H]2[C@@H]3C(=O)N(C4CCCCC4)C(=O)[C@@H]3CC[C@H]12
2. CC(C)=NO[C@H](C)c1cn([C@H](CO)Cc2ccccc2)nn1
3. COC(=O)CC=C[C@@H](C)[C@@H](C=NOCC[C@@H]1C=C[C@H](OC(C)=O)[C@@H](COC(C)=O)O1)OC
4. O=C1[C@H]2[C@H]3[C@H](O)[C@H](O)CC(=NOCc4ccccc4)[C@H]3CC[C@H]2C(=O)N1Cc1ccc2c(c1)OCO2
5. CCOC(=O)[C@H](Cc1ccccc1)NC(=O)CCC1CC(OC(=O)NCCc2ccc(F)cc2)CC2(CCCC(COC(=O)NCCc3ccccc3OC)O2)O1 (stereo not given in full)
6. C[C@@H]1NC(=O)[C@@H](C)COC(=O)[C@H](C)NC(=O)[C@@H](C)COC1=O
7. CC(C)(C)N1C(=O)[C@H]2[C@H]3[C@H](O)[C@H](O)CC(=NO[C@@H]4O[C@H](CO)[C@@H](O)[C@H](O)[C@H]4O)[C@H]3CC[C@H]2C1=O
8. CCOC(=O)[C@H](Cc1ccccc1)NC(=O)CCC1CC(OC(=O)NCc2cccc3ccccc23)CC2(CCCC(COC(=O)NCC(c3ccccc3)c3ccccc3)O2)O1 (stereo not given in full)

result:
1. -0.409
2. -0.178
3. 0.181
4. -0.192
5. -0.449
6. -0.152
7. 0.674
8. 0.793

Dear reader, for each entry below, please note its composite Z-score.
1. C#CCCCON=C1C[C@@H](O)[C@@H](O)[C@@H]2[C@@H]3C(=O)N(CCC(=O)OCC)C(=O)[C@@H]3CC[C@H]12
2. C=CC[C@@H]1C=C[C@H](ON=C[C@@H](C)[C@H](OCc2ccccc2)C(C)C)[C@@H](CO)O1
3. CCCNC(=O)OC[C@H]1O[C@H](CCON=Cc2ccc(C(=O)N3[C@H](c4ccc(C)cc4)[C@@H](C)CC[C@H]3C(=O)OC)cc2)C=C[C@@H]1Oc1ccc(OC)cc1
4. CC(=O)OC[C@H]1OC(ON=CC[C@@H]2C=C[C@H](OC(C)=O)[C@@H](COC(C)=O)O2)[C@H](OC(C)=O)[C@@H](OC(C)=O)[C@@H]1OC(C)=O (stereo not given in full)

result:
0.269
-0.315
0.0856
0.359

====

biological target: Torsin-1A (Homo sapiens); assay: small-molecule binders of mutant TOR1A in lysate, primary screen, cell lysate, small-molecule microarray, COS7 lysate, 635/667 nm fluorescence (AID 1150); conditions: COS7 hTOR1A mutant lysate, 635 nm fluorescence, higher = more signal;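 note: score pools 667 nm emission and signal to noise measuring lysate protein binding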
# composite z-score >= -0.03 gives 1.0, anything below gives 0.0

{"Chemical Structure": "CON=C[C@@H](C)[C@H](OCc1ccccc1)C(C)C", "Class Assignment": 0.0}
{"Chemical Structure": "CO[C@@H]1COC(=O)CC=C[C@@H](C)[C@H](OC)COC(=O)[C@@H](C)COC(=O)CC=C[C@H]1C", "Class Assignment": 1.0}
{"Chemical Structure": "CCOC(=O)C1=NO[C@]2(C=C(Br)C3(OCCCO3)[C@H]3O[C@H]32)C1", "Class Assignment": 1.0}

query: Kindly determine if composite z-score recorded for "CO[C@@H]1COC(=O)[C@@H](C)COC(=O)[C@@H](C)NC(=O)CC=C[C@@H]1C" is above or exactly -0.03.
result: 1.0

query: Kindly determine if composite z-score recorded for "COC(=O)CC=C[C@H](C)[C@@H](OCc1cccc(Br)c1)[C@@H](C)[C@H](OC)C1CCCCC1" is above or exactly -0.03.
result: 0.0

query: Kindly determine if composite z-score recorded for "CCCCc1nc2c(c3c1C[C@H](C)OC3)CN(CCOc1ccccc1)CC2" is above or exactly -0.03.
result: 1.0

query: Kindly determine if composite z-score recorded for "CON=CC[C@@H]1C=C[C@H](OC(C)=O)[C@@H](COC(C)=O)O1" is above or exactly -0.03.
result: 1.0

query: Kindly determine if composite z-score recorded for "COC(=O)CC=C[C@@H](C)[C@H](OCc1cccc(-c2ccccc2)c1)C1CCCCC1" is above or exactly -0.03.
result: 0.0

query: Kindly determine if composite z-score recorded for "CC(CCN1CCCc2nc(C)c(C)cc21)=NO[C@@H](C)c1cc(-c2c(C)cc(C)cc2C)no1" is above or exactly -0.03.
result: 0.0
